EXPERIMENTAL_DETAILS: NCI Yeast Anticancer Drug Screen. Data for the rad50 strain (AID 155);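 further: 0% = growth of vehicle-only cultures of the same strain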
TEST_SETTINGS: S. cerevisiae rad50 strain growth inhibition; at 50.0 µM; hits give high values
This is part of a sample that, as a whole, favours compounds with a hit. Of some 79,000 tested, about 15% had one in any assay.
MEASURE: growth inhibition (%)
Number in %, nothing else.

*Q* Provide growth inhibition value for the following compound: `O=C(c1ccccc1)c1ccncc1`
*A* 28.2

*Q* Provide growth inhibition value for the following compound: Cc1ccc(S(=O)(=O)OCC2CC=CCC2COS(=O)(=O)c2ccc(C)cc2)cc1 (stereo not given)
*A* 5.4

*Q* Provide growth inhibition value for the following compound: `CC(=O)Nc1cc(F)c(N=Nc2ccc(F)cc2)c(F)c1`
*A* 5.3

*Q* Provide growth inhibition value for the following compound: `CCN(CC)c1nc2ccccc2o1`
*A* -16.9

*Q* Provide growth inhibition value for the following compound: CCCCC(ON=C(C)C)C(=O)OC (stereo not given)
*A* 19.3

*Q* Provide growth inhibition value for the following compound: O=C(O)C(Oc1ccc(Cl)cc1Cl)C(Oc1ccc(Cl)cc1Cl)C(=O)O (stereo not given)
*A* -3.95

*Q* Provide growth inhibition value for the following compound: CC(=O)OC12C=CC(=O)N1c1ccccc1C(=O)O2 (stereo not given)
*A* 18.4

*Q* Provide growth inhibition value for the following compound: `CCCS(=O)(=O)N(CC)CC`
*A* -0.4

*Q* Provide growth inhibition value for the following compound: `CC1=C(C(=O)CC(=O)C(=O)Nc2cccc(Cl)c2C)Sc2ccccc2N1`
*A* -18.8

*Q* Provide growth inhibition value for the following compound: `CO/[N+]([O-])=C\C(=O)N/C=C/C(=O)O`
*A* 19.1

*Q* Provide growth inhibition value for the following compound: `C[CH2][Ge]([CH2]C)([CH2]C)[O]C(=O)CCC(=O)[O][Ge]([CH2]C)([CH2]C)[CH2]C`
*A* -2.1

*Q* Provide growth inhibition value for the following compound: `COc1cc(=O)n(-c2ccccc2)nc1C#N`
*A* 2.25

*Q* Provide growth inhibition value for the following compound: CC(=O)OC[C@@H](COC(=O)/C=C/c1ccc(O)cc1)OC1OC(CO)C(O)C(O)C1O (stereo not given in full)
*A* -1.45

*Q* Provide growth inhibition value for the following compound: `O=C1SCC(O)=C1/C=N/Nc1nc2ccccc2o1`
*A* -11.9

*Q* Provide growth inhibition value for the following compound: `Cc1cc(O)c(C(c2ccc3c(c2)OCO3)c2c(O)cc(C)[nH]c2=O)c(=O)[nH]1`
*A* 31.1

*Q* Provide growth inhibition value for the following compound: COC(=O)C1C(=O)C2CCC1C(=O)C2C(=O)OC (stereo not given)
*A* 1.95

*Q* Provide growth inhibition value for the following compound: `CCCCCC/C=N\OC(N)=O`
*A* 12.9

*Q* Provide growth inhibition value for the following compound: C/C(N=NC(=S)N1CCCCC1C)=C1\C=CC=CN1O (stereo not given)
*A* 49.2

*Q* Provide growth inhibition value for the following compound: CN(C)CCCC1c2ccccc2Oc2ccc(C(F)(F)F)cc21 (stereo not given)
*A* -9.45

*Q* Provide growth inhibition value for the following compound: `Cc1cc(N=Nc2ccc(S(=O)(=O)O)c3ccccc23)ccc1O`
*A* -33.6

*Q* Provide growth inhibition value for the following compound: `CC(C)NS(=O)(=O)c1ccccc1`
*A* 19.4

*Q* Provide growth inhibition value for the following compound: COc1cccc(C2c3cc4c(cc3OC(NNC(N)=O)C2C)OCO4)c1O (stereo not given)
*A* -12.8

*Q* Provide growth inhibition value for the following compound: `Cc1ccc(Nc2nnc(Nc3ccc(C)cn3)c3ccccc23)nc1`
*A* -10.7

*Q* Provide growth inhibition value for the following compound: `C/C=C/C(=O)N1C(=O)OC[C@@H]1c1ccccc1`
*A* 37.4

*Q* Provide growth inhibition value for the following compound: `CC(=O)c1cccc(N2COC(C)(C)c3nc4ccccc4n3C2)c1`
*A* 5.9
